Target: LpqY (Mycolicibacterium thermoresistibile)
Sequence (G7CES0 29-471): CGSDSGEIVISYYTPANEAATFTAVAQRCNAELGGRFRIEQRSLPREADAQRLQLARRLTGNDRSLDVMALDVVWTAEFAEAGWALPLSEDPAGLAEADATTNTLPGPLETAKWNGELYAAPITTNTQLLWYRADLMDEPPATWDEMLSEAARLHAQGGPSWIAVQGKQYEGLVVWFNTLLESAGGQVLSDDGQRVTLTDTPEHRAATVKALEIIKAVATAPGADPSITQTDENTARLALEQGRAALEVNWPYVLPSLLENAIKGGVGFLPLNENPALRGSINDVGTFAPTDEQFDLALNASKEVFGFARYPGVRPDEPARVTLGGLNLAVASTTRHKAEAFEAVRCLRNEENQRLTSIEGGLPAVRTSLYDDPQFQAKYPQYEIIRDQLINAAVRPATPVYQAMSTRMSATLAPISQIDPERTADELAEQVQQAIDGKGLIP
Assay: Microscale thermophoresis (MST) binding to LpqY
// pKd lookup, one value per entry
Reminder that pKd is minus the log10 of a molar concentration.

*Q* Form field: pKd recorded for OC[C@H]1O[C@H](O[C@H]2O[C@H](CO)[C@@H](O)[C@H](F)[C@H]2O)[C@H](O)[C@@H](O)[C@@H]1O [3F-Tre, 3-deoxy-3-fluoro-trehalose] with LpqY (Mycolicibacterium thermoresistibile) (enter value)
*A* 3.96

*Q* Form field: pKd recorded for OC[C@H]1O[C@H](O[C@H]2O[C@H](CO)[C@@H](F)[C@H](O)[C@H]2O)[C@H](O)[C@@H](O)[C@@H]1O [4F-Tre] with LpqY (Mycolicibacterium thermoresistibile) (enter value)
*A* 2.83

*Q* Form field: pKd recorded for OC[C@H]1O[C@H](O[C@H]2O[C@H](CO)[C@@H](O)[C@H](O)[C@H]2F)[C@H](O)[C@@H](O)[C@@H]1O [2F-Tre, 2-deoxy-2-fluoro-trehalose] with LpqY (Mycolicibacterium thermoresistibile) (enter value)
*A* 3.11

*Q* Form field: pKd recorded for OC[C@H]1O[C@H](O[C@H]2O[C@H](CF)[C@@H](O)[C@H](O)[C@H]2O)[C@H](O)[C@@H](O)[C@@H]1O [6F-Tre, 6-deoxy-6-fluoro-trehalose] with LpqY (Mycolicibacterium thermoresistibile) (enter value)
*A* 4.04

----------
Test system: Mycobacterium tuberculosis
Assay: Time dependent F-Tre uptake, HPAEC-PAD of cytosolic extracts
Type: cell-based
Settings: Time 8 h, 100 µM probe
parameter.measured: Mtb cytosolic concentration (µM)
Respond numerically; units are µM and should not be typed.

>>> print(df.to_string())
                                item_smiles  result_units  result
0  OC[C@H]1O[C@H](O[C@H]2O[C@H](CO)[C@@H](F)[C@H](O)[C@H]2O)[C@H](O)[C@@H](O)[C@@H]1O            µM       0
1  OC[C@H]1O[C@H](O[C@H]2O[C@H](CO)[C@@H](O)[C@H](O)[C@H]2F)[C@H](O)[C@@H](O)[C@@H]1O            µM    6639
2  OC[C@H]1O[C@H](O[C@H]2O[C@H](CO)[C@@H](O)[C@H](F)[C@H]2O)[C@H](O)[C@@H](O)[C@@H]1O            µM    7892

*Q* Return reported Mtb cytosolic concentration; argument: OC[C@H]1O[C@H](O[C@H]2O[C@H](CF)[C@@H](O)[C@H](O)[C@H]2O)[C@H](O)[C@@H](O)[C@@H]1O
*A* 6843
